Source: patent US12215099B2

Entries and their EC50
- Assay target: human muscarinic M3 receptor (Homo sapiens)
- Construct: expressed in transfected cells
- Sequence (P20309 whole entry): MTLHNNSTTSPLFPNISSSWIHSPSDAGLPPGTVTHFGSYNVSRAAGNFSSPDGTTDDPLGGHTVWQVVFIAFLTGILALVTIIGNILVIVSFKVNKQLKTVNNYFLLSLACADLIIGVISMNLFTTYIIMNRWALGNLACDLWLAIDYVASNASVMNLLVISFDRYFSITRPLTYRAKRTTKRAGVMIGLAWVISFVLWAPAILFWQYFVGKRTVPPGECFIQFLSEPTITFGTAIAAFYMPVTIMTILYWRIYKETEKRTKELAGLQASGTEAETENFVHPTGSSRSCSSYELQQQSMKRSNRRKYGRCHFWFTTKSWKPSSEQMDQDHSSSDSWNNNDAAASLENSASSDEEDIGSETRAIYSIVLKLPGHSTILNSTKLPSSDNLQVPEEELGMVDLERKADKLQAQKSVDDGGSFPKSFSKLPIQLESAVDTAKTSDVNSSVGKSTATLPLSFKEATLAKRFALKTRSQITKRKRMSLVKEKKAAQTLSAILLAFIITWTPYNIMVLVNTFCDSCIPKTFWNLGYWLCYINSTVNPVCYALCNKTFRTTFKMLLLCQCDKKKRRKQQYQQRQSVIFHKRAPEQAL
- Assay name: Alphascreen Surefire phospho-ERK1/2 functional assay, M3
- Format: cell-based
- Conditions used: CHO cells stably expressing human M3; agonist 5 min, 37° C.; read-out: pEC50 M3 (converted)

O=C1CCON1CCCCCC1CCN(CCCN2C(=O)CCc3ccccc32)CC1
> 20 µM
O=C1CCc2ccccc2N1CCCN1[C@@H]2CC[C@H]1CN(CCCOC1=NOCC1)C2
> 0.2 µM
O=C1CCON1CCCC1C[C@@H]2CC[C@@H](C1)N2CCCN1C(=O)CCc2ccccc21 (some centres unmarked)
> 20 µM
O=C1CCON1CCCCC1CCN(CCCN2C(=O)CCc3ccccc32)CC1
> 20 µM

Kindly review the next compound as well.
Lookup: Quick check: EC50 of O=C1COc2cc(F)ccc2N1CCCN1CCC(CCCCOC2=NOCC2)CC1 ?
Found: > 20 µM
